Tested on: HCC1937
method summary: Antiproliferative activity against human HCC1937 cells assessed as reduction in cell viability
Assay type: functional, cell-based
Reported IC50 values for the following compounds.

compound	IC50
NC(=O)c1ccc(COc2ccc(-n3cc4cccc(C(N)=O)c4n3)cc2)cc1	2850 nM
NC(=O)c1ccc(COc2ccc(-c3nc4c(C(N)=O)cccc4[nH]3)cc2)cc1	4050 nM
NC(=O)/C=C/c1ccc(COc2ccc(-c3nc4c(C(N)=O)cccc4[nH]3)cc2)cc1	2880 nM

(Q) Identify measured IC50 associated with `NC(=O)/C=C/c1ccc(COc2ccc(-n3cc4cccc(C(N)=O)c4n3)cc2)cc1`
(A) 1920 nM

(Q) Identify measured IC50 associated with O=C(c1cc(Cc2n[nH]c(=O)c3ccccc23)ccc1F)N1CCN(C(=O)C2CC2)CC1 [OLAPARIB]
(A) > 30000 nM
